System: MS2 coat protein
Experiment: apparent KD of MS2 coat protein, switch OFF state (with FMN for OFF switches, without FMN for ON switches); designed switch direction (-1 OFF switch, 1 ON switch): -1; higher = weaker reporter binding
Conditions: FMN input: 0 or 200 uM; Eterna round: R93 (includes R88 designs)
Parameter threshold = 20 nM. Response is YES when apparent KD of MS2 coat protein meets or exceeds it, else NO.

Please tell me: is the sequence AUAAGAGCAGGAUAUACGUAUAUGAUGCCAGGACCGCGUCCACAUGAGGAUCACCCAUGUAGAAGGGCUUGAAA [Disoleve] at or over 20 nM in terms of apparent KD of MS2 coat protein? NO

Please tell me: is the sequence AGUUGGCGAGGAUAUACAUGAGGAUCACCCAUGUGAAAUCGAGAAAAAAUAGGGAAAAGUAGAAGGCGCAGACA [Ruby 63] at or over 20 nM in terms of apparent KD of MS2 coat protein? YES

Please tell me: is the sequence AACAGGACAGGAUAUACAUGAGGAUCACCCAUGUAGGAAACAAGCAGAGUACCAAAAAGUAGAAGGGUCAUGGA [Ruby 30] at or over 20 nM in terms of apparent KD of MS2 coat protein? YES

Please tell me: is the sequence AACCAACAUGAGGAUCACCCAUGUCAGGAUAUGCGUACAACAUACAACAUACAUCAAAGCAGAAGGGACACAAA [Amethyst 84] at or over 20 nM in terms of apparent KD of MS2 coat protein? YES

Please tell me: is the sequence AACUGACAUGAGGAUCACCCAUGUCAGGAUAUGACAUCGAGAAAAAAAAAAAUCGUUGUCAGAAGGGACAUGAA [Design 78: Sub-opt T] at or over 20 nM in terms of apparent KD of MS2 coat protein? NO

Please tell me: is the sequence CCUAAACAUGAGGAUCACCCAUGUGAGGAUAUGAUGCGAAUAAAGAAAGAAGAAAGCAUCAGAAGGCACAUAGG at or over 20 nM in terms of apparent KD of MS2 coat protein? YES

Please tell me: is the sequence AAGAAGGAAGGAUAUACAUGAGGAUCACCCAUGUAAAAGAAAGAAAAGGGAAAGAAAAGUAGAAGGUCCAAGAA [Djeserkheperure-setpenre Horemheb] at or over 20 nM in terms of apparent KD of MS2 coat protein? YES

Please tell me: is the sequence AAGAAGUCAGGAUAUGCCAGAGAACAAGAAAGUGACGAAUAGCAGAAGGGACAUGAGGAUCACCCAUGUAAAGA [Opal 10] at or over 20 nM in terms of apparent KD of MS2 coat protein? YES

Please tell me: is the sequence UCCUUACAUGAGGAUCACCCAUGUUAGGAUAUCUCGCUUGCGCAAUCACAGCGCAAGCAGAGAAGGGACGCGGG [Ledige] at or over 20 nM in terms of apparent KD of MS2 coat protein? YES

Please tell me: is the sequence AACAGUACAGGAUAUACAUGAGGAUCACCCAUGUGAGAGAAAUAAAACAAAAAUAAAAGUAGAAGGGUACUGGA [Moding Maslow revisited (73) 22] at or over 20 nM in terms of apparent KD of MS2 coat protein? YES

Please tell me: is the sequence AAUAAGUGAGGAUAUGGAAAUAAUAAAUAAAAUACCCUAAACCAGAAGGCACAUGAGGAUCACCCAUGUAAAUA [JR_Exc004_Sub003] at or over 20 nM in terms of apparent KD of MS2 coat protein? YES

Please tell me: is the sequence CUCAAGUUAGGAUAUCCAAGAAAAGAAGAGAAAGAAAAGAAGGAGAAGGAACAUGAGGAUCACCCAUGUAAGAA [EteRNA is fun!] at or over 20 nM in terms of apparent KD of MS2 coat protein? YES

Please tell me: is the sequence CUCAUGUGAGGAUAUGUACAGAAAAAAAUGGGUGAAACUGUACAGAAGGCACAUGAGGAUCACCCAUGUGCAAA [EX4 377: S S Pseudoknot 2] at or over 20 nM in terms of apparent KD of MS2 coat protein? YES

These entries and their values trace back to the supplement of paper PMC9170038.
